Reference source for all entries: patent US11395857B2

# protocolNotes: Biodistribution of 177Lu-labeled αMSH analogues in mice bearing B16F10 mouse melanoma
# Type: in vivo, C57BL/6J mice
# cond: mouse, fat, iv, total radioactivity; 4 h p.i., C57BL/6J mice, B16F10 melanoma; read-out: Biodistribution, Fat
observationType: tissue uptake at 4 h (%ID/g)
Hi! Could you send only the number? It should be in %ID/g, unit omitted.

Field: example entries. Status: answers known.
{"columns": ["molecule", "tissue uptake at 4 h / %ID/g"],
 "data": [
  ["CCCC[C@H](NC(=O)CN1CCC(NC(=O)CN2CCN(CC(=O)O)CCN(CC(=O)O)CCN(CC(=O)O)CC2)CC1)C(=O)N[C@H]1CC(=O)NCCCC[C@@H](C(N)=O)N(C)C(=O)[C@H](Cc2c[nH]c3ccccc23)NC(=O)[C@H](CCCNC(=N)N)N(C)C(=O)[C@@H](Cc2ccccc2)NC(=O)[C@H](Cc2c[nH]cn2)NC1=O [^177Lu-labeled CCZ01106, metal not drawn]", 0.01],
  ["CCCC[C@H](NC(=O)CN1CCC(NC(=O)CN2CCN(CC(=O)O)CCN(CC(=O)O)CCN(CC(=O)O)CC2)CC1)C(=O)N[C@H]1CC(=O)NCCCC[C@@H](C(N)=O)N(C)C(=O)[C@H](Cc2c[nH]c3ccccc23)N(C)C(=O)[C@H](CCCNC(=N)N)N(C)C(=O)[C@@H](Cc2ccccc2)NC(=O)[C@H](Cc2c[nH]cn2)N(C)C1=O [^177Lu-labeled CCZ01099, metal not drawn]", 0.01]
]}

Q: // lookup tissue uptake at 4 h for CCCC[C@H](NC(=O)CN1CCC(NC(=O)[C@H](CCCCNC(=O)CN2CCN(CC(=O)O)CCN(CC(=O)O)CCN(CC(=O)O)CC2)NC(=O)[C@H](CCC(=O)O)NC(=O)CCCc2ccc(I)cc2)CC1)C(=O)N[C@H]1CC(=O)NCCCC[C@@H](C(N)=O)N(C)C(=O)[C@H](Cc2c[nH]c3ccccc23)NC(=O)[C@H](CCCNC(=N)N)N(C)C(=O)[C@@H](Cc2ccccc2)NC(=O)[C@H](Cc2c[nH]cn2)NC1=O [^177Lu-labeled CCZ01118, metal not drawn]
Result: 0.12

Q: Then CCCC[C@H](NC(=O)CN1CCC(NC(=O)[C@H](CCCCNC(=O)CN2CCN(CC(=O)O)CCN(CC(=O)O)CCN(CC(=O)O)CC2)NC(=O)[C@H](CCC(=O)O)NC(=O)CCCc2ccc(I)cc2)CC1)C(=O)N[C@H]1CC(=O)NCCCC[C@@H](C(N)=O)N(C)C(=O)[C@H](Cc2c[nH]c3ccccc23)N(C)C(=O)[C@H](CCCNC(=N)N)N(C)C(=O)[C@@H](Cc2ccccc2)NC(=O)[C@H](Cc2c[nH]cn2)N(C)C1=O [^177Lu-labeled CCZ01088, metal not drawn] ?
Result: 0.16

Q: Then CCCC[C@H](NC(=O)CN1CCC(NC(=O)[C@H](CCCCNC(=O)CN2CCN(CC(=O)O)CCN(CC(=O)O)CCN(CC(=O)O)CC2)NC(=O)[C@H](CCC(=O)O)NC(=O)CCCc2ccc(I)cc2)CC1)C(=O)N[C@H]1CC(=O)NCCCC[C@@H](C(N)=O)NC(=O)[C@H](Cc2c[nH]c3ccccc23)NC(=O)[C@H](CCCNC(=N)N)NC(=O)[C@@H](Cc2ccccc2)NC(=O)[C@H](Cc2c[nH]cn2)NC1=O [^177Lu-labeled CCZ01082, metal not drawn] ?
Result: 0.39
